# System: MDA-MB-468
# ASSAY_PROTOCOL: Antiproliferative activity against human MDA-MB-468 cells assessed as growth inhibition after 48 hrs by sulforhodamine B assay
# Type: functional
# TEST_SETTINGS: MDA-MB-468, 48 h
Binary call on GI50 with cut-off 2000 nM: strictly below means criterion met, and equality or higher means criterion not met.

Example cases with answers are listed next.
>>> assigned_class("COc1ccc2cc(-c3ccc(-c4ccc(C(=N)N)s4)s3)ccc2c1")
"criterion not met"
>>> assigned_class("COc1ccc(-c2ccc(-c3ccc(C(=N)N)o3)o2)cc1")
"criterion met"

Shift focus to the following entry.
**Query** A record lists COc1cc(OC)cc(-c2ccc(-c3ccc(C(=N)N)o3)o2)c1 . Is its GI50 below 2000 nM?
**Result** criterion not met

====

# ASSAY_PROTOCOL: Haemolytic activity in human erythrocytes assessed as induction of hemolysis at 10 mM after 30 mins relative to H202
# Type: cell-based, Erythrocyte
# TEST_SETTINGS: read-out: Activity
Binary call on hemolysis at 0.5 h, 10000 µM with cut-off 20%: strictly below means Yes, and equality or higher means No.

Example cases with answers are listed next.
>>> assigned_class("N=C(N)c1ccc(-c2ccc(-c3ccc4ccccc4c3)s2)s1")
"No"
>>> assigned_class("COc1ccc2cc(-c3ccc(-c4ccc(C(=N)N)s4)s3)ccc2c1")
"Yes"
>>> assigned_class("COc1cc(OC)cc(-c2ccc(-c3ccc(C(=N)N)o3)o2)c1")
"Yes"
>>> assigned_class("N=C(N)c1ccc(-c2ccc(-c3cncc4ccccc34)s2)s1")
"Yes"
>>> assigned_class("N=C(N)c1ccc(-c2ccc(-c3ccccc3)s2)s1")
"No"
>>> assigned_class("COc1ccc(-c2ccc(-c3ccc(C(=N)N)s3)s2)cc1")
"No"

**Query** A record lists COc1ccc(-c2ccc(-c3ccc(C(=N)N)o3)o2)cc1 . Is its hemolysis at 0.5 h, 10000 µM below 20%?
**Result** No

**Query** A record lists N=C(N)c1ccc(-c2ccc(-c3ccc(F)cc3)o2)o1 . Is its hemolysis at 0.5 h, 10000 µM below 20%?
**Result** No

**Query** A record lists N=C(N)c1ccc(-c2ccc(-c3cc(Cl)cc(Cl)c3)s2)s1 . Is its hemolysis at 0.5 h, 10000 µM below 20%?
**Result** Yes

**Query** A record lists N=C(N)c1ccc(-c2ccc(-c3ccc(F)cc3)s2)s1 . Is its hemolysis at 0.5 h, 10000 µM below 20%?
**Result** No

**Query** A record lists N=C(N)c1ccc(-c2ccc(-c3ccc(Cl)cc3)s2)s1 . Is its hemolysis at 0.5 h, 10000 µM below 20%?
**Result** No

====

# ASSAY_PROTOCOL: Haemolytic activity in human erythrocytes assessed as induction of hemolysis at 2.5 mM after 30 mins relative to H202
# Type: cell-based, Erythrocyte
# TEST_SETTINGS: erythrocytes, read-out: Activity
Exercise: for every item that follows, state its recorded hemolysis at 0.5 h, 2500 µM.
One number for each entry, in %.

Below, 5 compounds whose answers are already recorded.
>>> value_reported("COc1ccc(-c2ccc(-c3ccc(C(=N)N)o3)o2)cc1")
8.1
>>> value_reported("N=C(N)c1ccc(-c2ccc(-c3cc(Cl)cc(Cl)c3)o2)o1")
11.1
>>> value_reported("N=C(N)c1ccc(-c2ccc(-c3ccccc3)s2)s1")
15.3
>>> value_reported("N=C(N)c1ccc(-c2ccc(-c3ccc(F)cc3)s2)s1")
14
>>> value_reported("N=C(N)c1ccc(-c2ccc(-c3ccc(Cl)cc3)s2)s1")
14.3

Then there is this compound:
Noted for N=C(N)c1ccc(-c2ccc(-c3ccc(F)cc3)o2)o1 : its hemolysis at 0.5 h, 2500 µM reads 17.6

====

# System: MCF7
# ASSAY_PROTOCOL: Antiproliferative activity against human MCF7 cells assessed as growth inhibition after 48 hrs by sulforhodamine B assay
# Assay type: functional
# TEST_SETTINGS: MCF7, 48 h
MEASURE_NAME: GI50 (nM)
Give bare numbers, in nM.

>>> value_reported("N=C(N)c1ccc(-c2ccc(-c3ccc4ccccc4c3)s2)s1")
1750
>>> value_reported("N=C(N)c1ccc(-c2ccc(-c3ccc(F)cc3)s2)s1")
1150
>>> value_reported("COc1ccc(-c2ccc(-c3ccc(C(=N)N)o3)o2)cc1")
330

// for each molecule below, give its GI50
1. N=C(N)c1ccc(-c2ccc(-c3cncc4ccccc34)s2)s1
2. COc1cc(OC)cc(-c2ccc(-c3ccc(C(=N)N)o3)o2)c1
3. N=C(N)c1ccc(-c2ccc(-c3cc(Cl)cc(Cl)c3)o2)o1
4. COc1ccc2cc(-c3ccc(-c4ccc(C(=N)N)s4)s3)ccc2c1
5. N=C(N)c1ccc(-c2ccc(-c3ccccc3)o2)o1
6. N=C(N)c1ccc(-c2ccc(-c3ccc(Cl)cc3)o2)o1
7. N=C(N)c1ccc(-c2ccc(-c3ccc(Cl)cc3)s2)s1
8. N=C(N)c1ccc(-c2ccc(-c3ccc(F)cc3)o2)o1

**Result**
[280, 1800, 1350, 1910, 1680, 1270, 1290, 680]

// for each molecule below, give its GI50
1. N=C(N)c1ccc(-c2ccc(-c3cc(Cl)cc(Cl)c3)s2)s1
2. COc1cc(-c2ccc(-c3ccc(C(=N)N)s3)s2)cc(OC)c1OC

**Result**
1: 1340; 2: 1660

====

# System: T47D
# ASSAY_PROTOCOL: Antiproliferative activity against human T47D cells assessed as growth inhibition after 48 hrs by sulforhodamine B assay
# Type: functional
Binary call on GI50 with cut-off 2 µM: strictly below means condition met, and equality or higher means condition not met.

Example cases with answers are listed next.
>>> assigned_class("N=C(N)c1ccc(-c2ccc(-c3ccc(Cl)cc3)o2)o1")
"condition met"
>>> assigned_class("N=C(N)c1ccc(-c2ccc(-c3cc(Cl)cc(Cl)c3)o2)o1")
"condition met"
>>> assigned_class("COc1ccc(-c2ccc(-c3ccc(C(=N)N)o3)o2)cc1")
"condition met"
>>> assigned_class("N=C(N)c1ccc(-c2ccc(-c3ccc(Cl)cc3)s2)s1")
"condition met"

**Query** A record lists COc1cc(OC)cc(-c2ccc(-c3ccc(C(=N)N)o3)o2)c1 . Is its GI50 below 2 µM?
**Result** condition not met

====

# Tested on: SN12C
# ASSAY_PROTOCOL: Antiproliferative activity against human SN12C cells assessed as growth inhibition after 48 hrs by sulforhodamine B assay
# Assay type: functional
Exercise: for every item that follows, state its recorded GI50.
Answers are plain numbers, in nM.

Below, 10 compounds whose answers are already recorded.
>>> value_reported("N=C(N)c1ccc(-c2ccc(-c3ccc(F)cc3)s2)s1")
1980
>>> value_reported("N=C(N)c1ccc(-c2ccc(-c3cc(Cl)cc(Cl)c3)s2)s1")
2020
>>> value_reported("N=C(N)c1ccc(-c2ccc(-c3ccccc3)o2)o1")
3120
>>> value_reported("N=C(N)c1ccc(-c2ccc(-c3cncc4ccccc34)s2)s1")
1800
>>> value_reported("N=C(N)c1ccc(-c2ccc(-c3ccc4ccccc4c3)s2)s1")
1870
>>> value_reported("COc1cc(OC)cc(-c2ccc(-c3ccc(C(=N)N)o3)o2)c1")
2380
>>> value_reported("COc1ccc(-c2ccc(-c3ccc(C(=N)N)o3)o2)cc1")
2020
>>> value_reported("N=C(N)c1ccc(-c2ccc(-c3ccc(Cl)cc3)o2)o1")
1900
>>> value_reported("N=C(N)c1ccc(-c2ccc(-c3cc(Cl)cc(Cl)c3)o2)o1")
1970
>>> value_reported("COc1cc(-c2ccc(-c3ccc(C(=N)N)s3)s2)cc(OC)c1OC")
1610

// for each compound below, give its GI50
1. N=C(N)c1ccc(-c2ccc(-c3ccc(Cl)cc3)s2)s1
2. N=C(N)c1ccc(-c2ccc(-c3ccc(F)cc3)o2)o1
3. COc1ccc2cc(-c3ccc(-c4ccc(C(=N)N)s4)s3)ccc2c1

**Result**
[1910, 1800, 2120]

====

# Test system: COLO 205
# ASSAY_PROTOCOL: Antiproliferative activity against human COLO205 cells assessed as growth inhibition after 48 hrs by sulforhodamine B assay
# Format: functional
# TEST_SETTINGS: COLO 205, 48 h
MEASURE_NAME: GI50 (nM)
Give bare numbers, in nM.

Below, 3 compounds whose answers are already recorded.
>>> value_reported("N=C(N)c1ccc(-c2ccc(-c3ccc(F)cc3)o2)o1")
1600
>>> value_reported("COc1cc(-c2ccc(-c3ccc(C(=N)N)s3)s2)cc(OC)c1OC")
2130
>>> value_reported("N=C(N)c1ccc(-c2ccc(-c3cc(Cl)cc(Cl)c3)o2)o1")
1310

// for each compound below, give its GI50
1. N=C(N)c1ccc(-c2ccc(-c3ccc4ccccc4c3)s2)s1
2. N=C(N)c1ccc(-c2ccc(-c3ccccc3)o2)o1
3. N=C(N)c1ccc(-c2ccc(-c3cc(Cl)cc(Cl)c3)s2)s1

**Result**
1. 1630
2. 1780
3. 1540

// for each compound below, give its GI50
1. N=C(N)c1ccc(-c2ccc(-c3cncc4ccccc34)s2)s1
2. N=C(N)c1ccc(-c2ccc(-c3ccc(Cl)cc3)o2)o1

**Result**
750
1830
